Tested on: RPMI-8226 leukemia
Test: NCI tumour cell line growth inhibition, 48 h; in the data active = GI50 below about 0.43 µM; inactive = the rest
Respond with a class label; see active, inactive

Below, 4 molecules whose answers are already recorded.
Query string: Record request — test call for COc1cc(C2c3cc4c(cc3C3OC(=O)C2C3CO)OCO4)cc(OC)c1OC (stereo not given)
Result string: active

Query string: Record request — test call for CC(=O)NNC(=O)c1nn(-c2ccc(Cl)cc2)cc1OC(C)=O
Result string: inactive

Query string: Record request — test call for O=C(Cc1ccc(/C=C/C(=O)c2ncc[nH]2)cc1)Nc1ccc(Br)cc1
Result string: inactive

Query string: Record request — test call for c1ccc(-c2n(Cc3ccc4ccccc4n3)c3ccccc3[n+]2Cc2ccc3ccccc3n2)cc1
Result string: active

Turning now to a further record.
Query string: Record request — test call for C/C1=C\CC[C@@](C)(O)[C@H]2C[C@H](CC/C(C)=C/CC1)C1(CC1)C(=O)O2
Result string: inactive

* * *

Test system: CAKI-1 renal
Assay: NCI tumour cell line growth inhibition, 48 h
Attribute measured: TGI

Worked examples follow.
The measured TGI associated with COc1cc(/C=C/C(=O)c2c(C)n([O-])c3cc(C)c(C)cc3[n+]2=O)cc(OC)c1OC reads 29.6 µM

The measured TGI associated with CCOC(=O)N(CC)c1c(C(F)(F)F)cc(-c2ccccc2)[nH]c1=O reads > 100 µM

The measured TGI associated with Cn1c(=O)c(C(c2ccccc2)c2c(O)c3ccccc3n(C)c2=O)c(O)c2ccccc21 reads > 100 µM

The measured TGI associated with O=C1C[C@H](c2ccccc2)C2(C(=O)c3ccccc3C2=O)[C@@H](c2ccccc2)C1 reads > 100 µM

From here, focus on the item given below.
The measured TGI associated with O=C(c1ccc(Cl)cc1)N(Cc1cccnc1)C(=S)N(Cc1cccnc1)C(=O)c1ccc(Cl)cc1 reads > 100 µM

* * *

System: NCI-H460 lung
Test: NCI tumour cell line growth inhibition, 48 h
Attribute measured: TGI

The measured TGI associated with c1ccc(C(CCN2CCCC2)c2ccccn2)cc1 (stereo unspecified) reads > 100 µM

Further cases:
The measured TGI associated with COc1ccc2nc(-c3ccccc3)cc(Nc3ccc(/C(C)=N/O)cc3)c2c1 reads > 23.3 µM

The measured TGI associated with COc1cc2ccc(CC#N)cc2cc1OC reads > 100 µM

The measured TGI associated with Cc1cc(-c2ccccc2)c(C)n1Cc1ccc(Cl)cc1 reads > 100 µM

* * *

Listed compounds paired with reported TGI
Test system: EKVX NSCLC
Test: NCI tumour cell line growth inhibition, 48 h
Please reply with the bare figure in µM and do not write the unit itself.

Worked examples follow.
The measured TGI associated with C=C(C)CC1=C(C(=S)NCCO[Si](C)(C)C(C)(C)C)C(OCC)(OCC)C1=O reads 34.4

The measured TGI associated with COc1cc(C/C=C/c2ccccc2)c(OC)cc1O reads 33.3

From here, focus on the item given below.
The measured TGI associated with CCC[CH2][Sn]1([CH2]CCC)[O]C(=O)C[S]1 reads 6.53

* * *

Test system: A549 NSCLC
Test: NCI tumour cell line growth inhibition, 48 h; in the data active means GI50 below about 0.43 µM; inactive means the rest
Respond with a class label; see 1 (yes) = active, 0 (no) = inactive

Query string: Record request — test call for COc1cc2c(cc1OCCCCCCNC(=O)c1cc3ccccc3[nH]1)N=CC1CCCN1C2=O (stereo not given)
Result string: 0 (no)

Query string: Record request — test call for Cc1ccc(C(=O)Nc2ccc(CN3CCN(C)CC3)c(C(F)(F)F)c2)cc1C#Cc1cncc2ncccc12
Result string: 0 (no)

Query string: Record request — test call for CCOC(=O)Nc1nc2c(F)c(F)c(F)cc2s1
Result string: 0 (no)

Query string: Record request — test call for COc1cc2c(cc1OCCCCC(=O)Nc1ccc(-c3nc4ccccc4s3)cc1)N=C[C@@H]1CCCN1C2=O
Result string: 0 (no)

Turning now to a further record.
Query string: Record request — test call for COc1ccc(C(=O)Nc2ncc(Cc3ccc(F)cc3)s2)cc1
Result string: 1 (yes)

* * *

Tested on: T-47D breast
Test: NCI tumour cell line growth inhibition, 48 h
Listed compounds paired with reported TGI

The measured TGI associated with CC(C)(C)OC(=O)NC(CCCCNC(=O)OCc1ccccc1)C(=O)NC(CCCCNC(=O)OCc1ccccc1)C(=O)ON1C(=O)CCC1=O (centres undefined) reads > 100 µM

Further cases:
The measured TGI associated with COc1ccc(N2C(=O)C3c4[nH]c5ccccc5c4C4CCC(C(C)C)CC4C3C2=O)cc1 (centres undefined) reads > 100 µM

The measured TGI associated with CC(=O)NC1C(OCc2ccccc2)OC(CO)C(O)C1OCC(=O)NC(C)C(=O)NC(CCC(=O)NCCCCCC(=O)Nc1ccc2c(c1)CN1C(=O)c3ccccc3C1=N2)C(N)=O (centres undefined) reads > 100 µM

* * *

System: HT29 colon
Experiment: NCI tumour cell line growth inhibition, 48 h
Attribute measured: TGI

The measured TGI associated with O=C1C[C@@H](c2ccccc2)NCCCCN(O)CCCN1 reads > 100 µM

Further cases:
The measured TGI associated with Cc1cc[c-]cc1.Fc1c[c-]c(-c2ccccn2)c(F)c1.N#CCC[PH+](CCC#N)c1ccccc1.[Pt+2] reads 17.8 µM

The measured TGI associated with NCCCn1c2c(c3ccc([N+](=O)[O-])cc3c1=O)C(=O)c1cc3c(cc1-2)OCO3 reads > 100 µM

The measured TGI associated with COC(=O)C1(NC(=O)C(N)CC(=O)O)C(C)C1C (stereo unspecified) reads > 100 µM

The measured TGI associated with CC(=O)OCCC/C(=C\c1ccc2ccccc2c1)[N+](=O)[O-] reads 5.59 µM

The measured TGI associated with CCN(CC)C(=O)c1c(N2CCOCC2)cc(N(CC)CC)oc1=O reads > 100 µM

The measured TGI associated with CC1NOC(NS(=O)(=O)c2ccc(N=Nc3c(O)c(C(=O)O)cc4ccccc34)cc2)C1C (stereo unspecified) reads > 100 µM

The measured TGI associated with O=C(c1ccc(Cl)cc1)N(Cc1cccnc1)C(=S)N(Cc1cccnc1)C(=O)c1ccc(Cl)cc1 reads 76.9 µM

The measured TGI associated with C[C@H](CC[C@@H](O)C(C)(C)O)[C@H]1CC[C@@]2(C)[C@@H]3CC=C4[C@@H](CC[C@H](OC5OC(CO)C(O)C(O)C5O)C4(C)C)[C@]3(C)C(=O)C[C@]12C (stereo partly specified) reads > 100 µM

* * *

Listed compounds paired with reported TGI
Tested on: K-562 leukemia
Experiment: NCI tumour cell line growth inhibition, 48 h

Worked examples follow.
The measured TGI associated with Cc1ccccc1NC(=S)N/N=C(/c1ccccc1)c1ccccn1 reads 4.17 µM

The measured TGI associated with C=C1c2nc3ccccc3n2C=C(c2ccc(Cl)cc2)N1c1ccccc1 reads > 100 µM

The measured TGI associated with COC(=O)[C@]12CC[C@@H](C)[C@H](C)[C@@H]1C1=CC[C@@H]3[C@@]4(C)C(c5ncon5)=C[C@@](C)(CO)C4=CC[C@@]3(C)[C@]1(C)CC2 reads 4.82 µM

The measured TGI associated with OC(COc1ccc(Cl)cc1Cl)CN1CCCC1 (centres undefined) reads > 100 µM

The measured TGI associated with FC1CCN(C2(c3cccs3)CCCCC2)CC1 reads > 100 µM

Further cases:
The measured TGI associated with COc1cc2c(c3oc(-c4ccc5c(c4)OCO5)c(O)c(=O)c13)CCC(C)(C)O2 reads > 100 µM

* * *

Tested on: T-47D breast
Experiment: NCI tumour cell line growth inhibition, 48 h
Attribute measured: GI50

I looked up COc1ccc(N2CCN(CC(=O)N3CCN(c4nnc(-c5ccccc5)c(-c5ccccc5)n4)CC3)CC2)cc1 and its GI50 for T-47D breast was 2.56 µM

I looked up c1ccc(-c2n(Cc3ccc4ccccc4n3)c3ccccc3[n+]2Cc2ccc3ccccc3n2)cc1 and its GI50 for T-47D breast was 0.193 µM

I looked up CC(=O)NNC(=O)c1nn(-c2ccc(Cl)cc2)cc1OC(C)=O and its GI50 for T-47D breast was 13.7 µM

I looked up CC(=O)OC1CCC2(C)C(CCC3C2CCC2(C)C(C4=CC(=O)OC4)CCC32)C1 (centres undefined) and its GI50 for T-47D breast was 13.1 µM

* * *

System: SN12C renal
Test: NCI tumour cell line growth inhibition, 48 h; in the data active means GI50 below about 0.43 µM; inactive means the rest
Respond with a class label; see 1.0 (active), 0.0 (inactive)

Below, 4 molecules whose answers are already recorded.
Query string: Record request — test call for Cc1ccc(C(=O)Nc2ccc(CN3CCN(C)CC3)c(C(F)(F)F)c2)cc1C#Cc1cncc2ncccc12
Result string: 1.0

Query string: Record request — test call for O=C1C=C(N2CC2)c2ccccc2C1=O
Result string: 0.0

Query string: Record request — test call for CCOC(=O)Nc1nc2c(F)c(F)c(F)cc2s1
Result string: 0.0

Query string: Record request — test call for C[C@@H]1CN(Cc2ccc(/C=C/c3n[nH]c4ccc5nc(-c6cn[nH]c6C(F)(F)F)c6c(c5c34)CCCC6)cc2)C[C@H](C)O1
Result string: 0.0

Further cases:
Query string: Record request — test call for O=C1OCC2=C1C(c1cccc(F)c1)c1cc3c(cc1N2CCO)OCCO3 (centres undefined)
Result string: 1.0

Query string: Record request — test call for COc1cc(/C=C/C(=O)c2c(C)n([O-])c3cc(C)c(C)cc3[n+]2=O)cc(OC)c1OC
Result string: 0.0

Query string: Record request — test call for C/C1=C\CC[C@@](C)(O)[C@H]2C[C@H](CC/C(C)=C/CC1)C1(CC1)C(=O)O2
Result string: 0.0

Query string: Record request — test call for CCC[CH2][Sn]1([CH2]CCC)[O]C(=O)C[S]1
Result string: 0.0

Query string: Record request — test call for NCCCn1c2c(c3ccc([N+](=O)[O-])cc3c1=O)C(=O)c1cc3c(cc1-2)OCO3
Result string: 1.0

Values from PubChem BioAssay (NCI)
